Listed here: items and their measured pIC50.
target-under-test: ROCK1 (Homo sapiens (Human), UniProt Q13464)
Sequence (Q13464 whole entry, species assumed): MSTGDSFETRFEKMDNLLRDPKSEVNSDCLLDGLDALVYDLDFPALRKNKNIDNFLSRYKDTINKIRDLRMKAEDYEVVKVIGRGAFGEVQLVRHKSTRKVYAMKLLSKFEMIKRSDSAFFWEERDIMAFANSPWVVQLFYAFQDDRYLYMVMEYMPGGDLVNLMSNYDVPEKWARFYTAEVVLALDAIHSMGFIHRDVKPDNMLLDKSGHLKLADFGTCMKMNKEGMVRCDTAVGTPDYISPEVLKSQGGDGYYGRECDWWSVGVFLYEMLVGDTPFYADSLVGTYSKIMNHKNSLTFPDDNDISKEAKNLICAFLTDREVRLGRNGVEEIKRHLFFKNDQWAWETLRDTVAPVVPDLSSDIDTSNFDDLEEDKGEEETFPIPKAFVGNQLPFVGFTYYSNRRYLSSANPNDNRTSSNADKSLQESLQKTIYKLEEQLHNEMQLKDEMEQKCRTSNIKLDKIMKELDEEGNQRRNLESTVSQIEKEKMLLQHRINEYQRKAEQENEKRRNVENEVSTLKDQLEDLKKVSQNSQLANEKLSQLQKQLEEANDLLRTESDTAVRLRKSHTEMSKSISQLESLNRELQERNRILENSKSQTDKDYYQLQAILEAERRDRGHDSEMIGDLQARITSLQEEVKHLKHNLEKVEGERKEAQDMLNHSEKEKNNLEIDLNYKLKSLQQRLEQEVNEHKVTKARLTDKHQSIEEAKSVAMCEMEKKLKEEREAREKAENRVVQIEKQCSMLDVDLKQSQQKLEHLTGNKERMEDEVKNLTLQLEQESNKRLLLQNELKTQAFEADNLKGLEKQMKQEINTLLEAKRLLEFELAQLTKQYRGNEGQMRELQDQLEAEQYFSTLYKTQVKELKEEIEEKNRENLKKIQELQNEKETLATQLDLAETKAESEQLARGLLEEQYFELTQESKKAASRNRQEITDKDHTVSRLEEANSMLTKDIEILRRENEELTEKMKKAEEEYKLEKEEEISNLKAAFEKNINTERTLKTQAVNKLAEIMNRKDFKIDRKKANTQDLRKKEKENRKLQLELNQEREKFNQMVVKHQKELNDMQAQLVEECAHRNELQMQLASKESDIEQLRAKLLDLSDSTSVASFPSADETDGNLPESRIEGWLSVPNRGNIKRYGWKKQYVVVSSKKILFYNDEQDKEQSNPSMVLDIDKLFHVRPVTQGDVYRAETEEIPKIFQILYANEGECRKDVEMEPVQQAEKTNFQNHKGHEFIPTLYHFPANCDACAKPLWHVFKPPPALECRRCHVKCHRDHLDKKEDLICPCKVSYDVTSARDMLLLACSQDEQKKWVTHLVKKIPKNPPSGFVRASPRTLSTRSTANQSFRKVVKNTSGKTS
method-description: ROCK assay (LABCHIP peptide phosphorylation), ROCK1
Format: biochemical
run-conditions: 5 μM ATP, 1.5 μM peptide substrate; read-out: ROCK1 IC50
pIC50: −log10 of the molar value.

CN(C)c1ccc(C(=O)Nc2ccc(-c3c[nH]c(=O)c4ccccc34)cc2)cc1; 7.00 to 10.00
O=c1[nH]nc(-c2ccc(Nc3ncc(-c4ccccc4)s3)cc2)c2ccccc12; 4.30 to 6.00
Cn1c(C(=O)Nc2ccc(-c3n[nH]c(=O)c4ccccc34)cc2)cc2cc(Cl)ccc21; 6.00 to 7.00
CC(C)(O)Cn1nc(C(=O)Nc2ccc(-c3n[nH]c(=O)c4ccccc34)cc2)c2ccccc21; 7.00 to 10.00

We next turn to a different compound, shown below.
Exercise: Specify measured pIC50 for `O=C(Nc1ccc(-c2n[nH]c(=O)c3ccccc23)cc1)c1cnn2ccc(OCCO)cc12` .
Solution: 6.00 to 7.00

====

target-under-test: ROCK1 (Homo sapiens (Human), UniProt Q13464)
method-description: ROCK assay (LABCHIP peptide phosphorylation), ROCK1
Assay type: biochemical
run-conditions: 5 μM ATP, 1.5 μM peptide substrate; read-out: ROCK1 IC50
pIC50: −log10 of the molar value.
Measured pIC50 values are reported for all entries that follow.

Observe how each entry below is paired with its result.
O=C(Cc1ccc(-c2n[nH]c(=O)c3ccccc23)cc1)N1CCc2ccc(O[C@@H]3CCOC3)cc21; 7.00 to 10.00
COc1ccc(C#N)c(-n2cnc(C(=O)Nc3ccc(-c4n[nH]c(=O)c5ccccc45)cc3)n2)c1; 6.00 to 7.00
O=C(Nc1ccc(-c2n[nH]c(=O)c3ccccc23)cc1)c1cnn(-c2ccccc2)c1Cl; 7.00 to 10.00
CC(C)c1c(C(=O)Nc2ccc(-c3n[nH]c(=O)c4ccccc34)cc2)nnn1-c1ccccc1; 6.00 to 7.00

Exercise: Tell me its pIC50 given CC(O)COc1ccn2ncc(C(=O)Nc3ccc(-c4n[nH]c(=O)c5ccccc45)cc3)c2c1 (stereo not drawn) as the entry.
Solution: 7.00 to 10.00

Exercise: Report pIC50, nothing else, for this molecule: COCC(O)COc1ccn2ncc(C(=O)Nc3ccc(-c4n[nH]c(=O)c5ccccc45)cc3)c2c1 (stereo not drawn)
Solution: 6.00 to 7.00

Exercise: Answer with the recorded pIC50 for the molecule listed here: `O=C(Cc1ccc(-c2n[nH]c(=O)c3ccccc23)cc1)N1CCc2cc(OC(F)(F)F)cc(Br)c21`
Solution: 4.30 to 6.00

Exercise: Tell me measured pIC50 for `O=C(Cc1ccc(-c2n[nH]c(=O)c3ccccc23)cc1)N1CCc2ccc(OCc3ccccn3)cc21` please.
Solution: 7.00 to 10.00

Exercise: Supply pIC50 value. Item: `CC(C)(O)CNC(=O)Cn1nc(C(=O)Nc2ccc(-c3n[nH]c(=O)c4ccccc34)cc2)c2ccccc21`
Solution: 7.00 to 10.00

Exercise: Given the molecule O=C(Nc1ccc(-c2n[nH]c(=O)c3ccccc23)cc1)C1CCN(Cc2ccccc2)C1 (stereo not drawn) , write its reported pIC50.
Solution: 4.30 to 6.00

Exercise: Let me know recorded pIC50 for `CC(C)(O)Cn1cc(C(=O)Nc2ccc(-c3n[nH]c(=O)c4ccccc34)cc2)c2cccnc21` , thanks.
Solution: 7.00 to 10.00

Exercise: Give a short answer stating reported pIC50 for `CCc1nc2ncccn2c1C(=O)Nc1ccc(-c2n[nH]c(=O)c3ccccc23)cc1` .
Solution: 7.00 to 10.00

Exercise: Return the recorded pIC50 value; entry: `O=C(Cc1ccc(-c2n[nH]c(=O)c3ccccc23)cc1)N1CCc2ccc(OCc3ccccc3)cc21`
Solution: 7.00 to 10.00

Exercise: For the molecule `Cc1nn(-c2ccccc2)cc1C(=O)Nc1ccc(-c2n[nH]c(=O)c3ccccc23)cc1` , give its measured pIC50 value.
Solution: 7.00 to 10.00

Exercise: Please give the documented pIC50 of `Cc1cc(NC(=O)c2cc(C(C)(C)C)n(C)n2)ccc1-c1n[nH]c(=O)c2ccccc12`
Solution: 7.00 to 10.00

Exercise: Return value of pIC50 for input `O=C(Cc1ccc(-c2n[nH]c(=O)c3ccccc23)cc1)N1CCc2ccc(OCC3COC3)cc21` , no commentary.
Solution: 7.00 to 10.00

Exercise: Supply reported pIC50 belonging to this molecule: `O=C(Cc1ccc(-c2n[nH]c(=O)c3ccccc23)cc1)Nc1nc2ccccc2[nH]1`
Solution: 4.30 to 6.00

Exercise: Please report the measured pIC50 for `COc1ccc(N2CCN(C(=O)Cc3ccc(-c4n[nH]c(=O)c5ccccc45)cc3)CC2)cc1`
Solution: 4.30 to 6.00
